Biological target: CLR/RAMP2 receptor (UniProt Q16602 23-461; O60895 43-175, limits assumed)
Sequence (Q16602 23-461 limits assumed, chain 1 of 2): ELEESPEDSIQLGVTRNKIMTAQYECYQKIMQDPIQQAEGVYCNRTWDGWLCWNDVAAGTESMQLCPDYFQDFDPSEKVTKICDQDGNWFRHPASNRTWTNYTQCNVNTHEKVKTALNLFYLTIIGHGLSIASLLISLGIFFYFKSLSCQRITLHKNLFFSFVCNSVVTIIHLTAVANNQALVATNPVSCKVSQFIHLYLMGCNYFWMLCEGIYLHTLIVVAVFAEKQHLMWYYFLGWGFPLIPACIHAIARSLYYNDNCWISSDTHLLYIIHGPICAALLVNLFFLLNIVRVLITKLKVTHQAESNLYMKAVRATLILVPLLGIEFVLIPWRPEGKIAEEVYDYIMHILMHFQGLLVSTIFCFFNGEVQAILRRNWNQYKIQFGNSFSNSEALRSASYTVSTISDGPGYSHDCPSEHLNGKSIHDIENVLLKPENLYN
Sequence (O60895 43-175 limits assumed, chain 2 of 2): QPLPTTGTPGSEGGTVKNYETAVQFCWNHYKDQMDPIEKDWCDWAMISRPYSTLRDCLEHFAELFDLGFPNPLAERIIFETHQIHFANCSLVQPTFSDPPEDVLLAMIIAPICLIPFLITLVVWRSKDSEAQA
Test: cell-based or functional assay
Measure Name: CLR/RAMP2 Max Activity

Example entries and their recorded answers appear below.
KRPPGFSIKGCRFGTCTVQKLAHQIYQFTDKDVAPRSKISPQGY (Ace- at N-terminus; D/Nal in KRPPGFS-D/Nal-I; miniPEG before K(PAL); K(PAL); -NH2) [BDKRB1 antagonist and CLR/RAMP agonist MRL (SEQ ID NO: 231)]; 46 % of positive controls
RVYVHPAKGCRFGTCTVQKLAHQIYQFTDKDVAPRSKISPQGY (Sar at N-terminus (Sar-RVYVHPA); miniPEG before K(PAL); K(PAL); -NH2) [AGTR1 antagonist/CLR/RAMP agonist MRL (SEQ ID NO: 234)]; 86 % of positive controls
XRPRLSHKGPLPFKGCRFGTCTVQKLAHQIYQFTDKDVAPRSKISPQGY (not fully specified; (Glp) at N-terminus; (Nle) in RPRLSHKGP(Nle)PF; miniPEG before K(PAL); K(PAL); -NH2) [AGTRL1 and CLR/RAMP agonist MRL (SEQ ID NO: 228)]; 74 % of positive controls

Note: attention shifts to another entry.
Input: Quickly give me recorded CLR/RAMP2 Max Activity for XLYENKPRRPYILKGCRFGTCTVQKLAHQIYQFTDKDVAPRSKISPQGY (Pyr(glu)- at N-terminus; miniPEG between LYENKPRRPYIL and K(PAL); K(PAL); -NH2) [NTSR1 and CLR/RAMP agonist MRL (SEQ ID NO: 223)]
Output: 70 % of positive controls

Numbers sourced from patent US20190153059A1.
